Reference source for all entries: PubChem BioAssay AID1117319

TEST_SYSTEM: Virion infectivity factor (Human immunodeficiency virus type 1 group M subtype B (isolate BH10)) + Virion infectivity factor (Human immunodeficiency virus type 1 group M subtype B (isolate BRU/LAI)) + Virion infectivity factor (Human immunodeficiency virus type 1 group M subtype B (isolate PCV12)) + Virion infectivity factor (Human immunodeficiency virus type 1 group M subtype B (isolate HXB2)) + DNA dC->dU-editing enzyme APOBEC-3G (Homo sapiens) (UniProt P69720+P69721+P69722+P69723+Q9HC16)
ASSAY_REMARKS: inhibitors of Vif binding to APOBEC3G peptide, primary screen, biochemical, TR-FRET, GST-Vif 1-94, biotin-A3G peptide, dose response retest (AID 1117319);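 further: Vif residues 1-94 fused to GST binding biotinylated APOBEC3G peptide 110-148; 0% = full assay without inhibitor and 100% = GST in place of GST-Vif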
TEST_CONTEXT: active compounds read high
Among all 260,000 compounds or so, about 1,500 (0.58%) were called active. Not shown: some 5% with an inconclusive outcome. These entries were drawn from the full list. Results with a measured potency or affinity are listed apart.
Answer each item with its documented inhibition.
Give bare numbers, in %.

Some molecules with recorded inhibition:
MOLECULE	REPORTED_PROPERTY	EXPERIMENTAL_VALUE
CCOc1c(OC(C)=O)ccc(/C=C/c2ccc3cccc(OC)c3n2)c1[N+](=O)[O-]	inhibition	21.2
CC(C)Nc1nc2cccnc2s1	inhibition	-0.88
CC1CCCCC1NC(=O)CSc1nnc(COc2ccc(Cl)cc2)o1 (stereo unspecified)	inhibition	3.41

// batch mode: one inhibition value per listed entry
1. CC1(c2ccc([N+](=O)[O-])cc2)NC(=O)N(CC(=O)Nc2cccnc2Cl)C1=O (stereo unspecified)
2. CCOc1ccc(N2C(=O)CC(N(Cc3ccco3)C(=O)CC)C2=O)cc1 (stereo unspecified)
3. CCn1c(CNC(=O)c2cccc(C)c2)nnc1SCC(=O)NC1=NCCS1
4. O=C(/C=C/c1ccccc1)c1ccc2c(c1)OCO2
5. Nc1c(C(=O)CSc2nccn2-c2ccc(Cl)cc2)c(=O)[nH]c(=O)n1C1CC1
6. c1coc(-c2nnc(SCc3cn4ccccc4n3)o2)c1
7. Brc1ccc(CSc2nnc(-c3ccco3)o2)cc1

1. -4.51
2. 0.31
3. -12
4. -5.81
5. -3.47
6. 2.16
7. -2.39

Bench note: what inhibition did Cc1ccc2nc3c(c(C(=O)O)c2c1)CCC3 show?
32.8

* * *

Answer each item with its documented inhibition.
TEST_SYSTEM: Virion infectivity factor (Human immunodeficiency virus type 1 group M subtype B (isolate BH10)) + Virion infectivity factor (Human immunodeficiency virus type 1 group M subtype B (isolate BRU/LAI)) + Virion infectivity factor (Human immunodeficiency virus type 1 group M subtype B (isolate PCV12)) + Virion infectivity factor (Human immunodeficiency virus type 1 group M subtype B (isolate HXB2)) + DNA dC->dU-editing enzyme APOBEC-3G (Homo sapiens) (UniProt P69720+P69721+P69722+P69723+Q9HC16)
ASSAY_REMARKS: inhibitors of Vif binding to APOBEC3G peptide, primary screen, biochemical, TR-FRET, GST-Vif 1-94, biotin-A3G peptide, dose response retest (AID 1117319);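 further: Vif residues 1-94 fused to GST binding biotinylated APOBEC3G peptide 110-148; 0% = full assay without inhibitor and 100% = GST in place of GST-Vif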
TEST_CONTEXT: active compounds read high
In all, about 260,000 compounds went through this assay and about 1,500 (0.58%) were called active. Not shown: some 5% with an inconclusive outcome. The list is a sample of the results. Potency and affinity values are given separately.
Give bare numbers, in %.

Cc1cc([N+](=O)[O-])c(C)cc1-c1ccc(/C=N/n2cnnc2)o1 1.64
Cc1ccc(Nc2c(-c3ccco3)nc3ccccn23)cc1 12
COc1ccc(Cl)cc1C(=O)OCC(=O)NC(=O)c1cccn1C -9.04
O=[N+]([O-])c1ccc(-c2ccc(C=Nc3cccc4ccccc34)o2)cc1 3.05
Cc1ccc(NC(=O)/C(C#N)=C/c2ccc(Sc3nc(C)cc(C)n3)o2)cc1 -1.36
COc1ccc(NC(=O)c2ccc(Br)o2)cc1 6.22

// batch mode: one inhibition value per listed entry
1. COc1ccc(NC(=O)/C(C#N)=C/c2ccc3c(c2)n(C)c(=O)n3C)cc1
2. N#C/C(=C/c1ccc(F)cc1)C(N)=S

[1.72, -0.15]

// batch mode: one inhibition value per listed entry
1. COc1cc(-c2nc3ccccn3c2/N=C/c2cc(OC)c(O)cc2Cl)ccc1O
2. O=[N+]([O-])c1ccc(-c2ccc(/C=N/c3c(-c4ccco4)nc4ccccn34)o2)cc1
3. c1ccc(Nc2c(-c3ccco3)nc3ccccn23)cc1

[22.2, 7.55, -2.7]

* * *

Answer each item with its documented inhibition.
TEST_SYSTEM: Virion infectivity factor (Human immunodeficiency virus type 1 group M subtype B (isolate BH10)) + Virion infectivity factor (Human immunodeficiency virus type 1 group M subtype B (isolate BRU/LAI)) + Virion infectivity factor (Human immunodeficiency virus type 1 group M subtype B (isolate PCV12)) + Virion infectivity factor (Human immunodeficiency virus type 1 group M subtype B (isolate HXB2)) + DNA dC->dU-editing enzyme APOBEC-3G (Homo sapiens) (UniProt P69720+P69721+P69722+P69723+Q9HC16)
ASSAY_REMARKS: inhibitors of Vif binding to APOBEC3G peptide, primary screen, biochemical, TR-FRET, GST-Vif 1-94, biotin-A3G peptide, dose response retest (AID 1117319);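 further: Vif residues 1-94 fused to GST binding biotinylated APOBEC3G peptide 110-148; 0% = full assay without inhibitor and 100% = GST in place of GST-Vif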
TEST_CONTEXT: active compounds read high
Hit rate of the full screen: of about 260,000 compounds, about 1,500 (0.58%) were called active. About 5% were inconclusive and are not listed. Not all results are given here. Potency and affinity values are given separately.
Numbers only, in %.

MOLECULE	inhibition (%)
O=C(O)Cn1cc(/C=N/NC(=O)c2cc3cc(Br)ccc3o2)c2ccccc21	0.84

// batch mode: one inhibition value per listed entry
1. Cc1cc(/C=N/Nc2ccc([N+](=O)[O-])cn2)c(C)n1-c1ccccc1
2. NC(=O)C[C@@H]1N[C@]2(C(=O)Nc3ccccc32)[C@@H]2C(=O)N(C3CCCCC3)C(=O)[C@H]12
3. Brc1cccc(-c2nnco2)c1
4. COc1ccc(Oc2ccc(C(F)(F)F)cc2NC(=O)c2ccc(OC)cc2)cc1
5. O=C1NC(=O)/C(=C\c2ccc(Sc3ccc(Cl)cc3)o2)N1

1: 6.45; 2: 6.65; 3: -2.5; 4: -13.5; 5: 21.1

// batch mode: one inhibition value per listed entry
1. CN1/C(=C\C=Nc2ccc3ccccc3c2)C(C)(C)c2ccccc21
2. COc1ccc2c(c1)CC/C(=C/c1ccco1)C2=O
3. CC(=O)Nc1ccccc1NC(=O)COc1cccc2ccccc12
4. O=C(OCc1nc2ccsc2c(=O)[nH]1)c1ccc(Cl)s1
5. O=C1/C(=C\c2ccccc2)CCC/C1=C/c1ccccc1
6. O/N=C1\CCCC\C1=C/c1ccccc1
7. Cc1ccc(N(Cc2ccccc2)C(=O)c2cccc(S(=O)(=O)N3CC(C)OC(C)C3)c2)cc1 (centres undefined)

15.9
26.2
-3.58
11.9
-1.78
5.14
5.98

// batch mode: one inhibition value per listed entry
1. O=C(CCn1c(=S)oc2ccccc21)NC1CCCCCCC1
2. Cc1ccccc1-n1c(C)cc(/C=N/Nc2ccc([N+](=O)[O-])cn2)c1C
3. O=c1/c(=C/c2ccco2)sc2n1CN(c1cccc(Br)c1)CN=2
4. O=S(=O)(Nc1cccc(-n2cnnn2)c1)c1ccccc1F
5. Cc1ccc(C2=N/C(=C\c3ccc(F)cc3)C(=O)N2)cc1
6. Cc1ccccc1N=C1NC(=O)CS1
7. O=C1/C(=C/c2ccco2)CCC1C1CCCC1 (centres undefined)

1: -0.87; 2: 6.93; 3: 32.9; 4: -7.41; 5: -3.34; 6: -1.84; 7: 25.4

// batch mode: one inhibition value per listed entry
1. C=CCNC(=O)C1COc2ccccc2O1 (centres undefined)
2. COc1ccc2cc(CN(Cc3ccco3)C(=S)NCC3CCCO3)c(=O)[nH]c2c1 (centres undefined)
3. Oc1ccc(Cl)cc1N=Nc1ccccc1
4. COc1cccc(C(=O)N2CCN(C(=O)c3cccc4ccccc34)CC2)c1OC
5. CN1CCN(c2ncc(CN3C(=O)c4ccccc4C3=O)s2)CC1
6. CCOC(=O)C1=C(COC(=O)/C=C/c2ccc(Cl)cc2)NC(=O)NC1C (centres undefined)
7. O=S(=O)(NCc1ccccn1)c1ccc2c(c1)OCCO2
8. COc1cc(OC)cc(C(=O)N[C@H](C(=O)Nc2cc(C)cc(C)c2)C(C)C)c1

-12.5
-22.6
0.9
1.56
1.36
2.25
-0.75
-1.59

// batch mode: one inhibition value per listed entry
1. O=C1C=C(Nc2ccccc2)c2ccccc2C1=O
2. CCC(C)NC(=O)C(Cc1ccccc1)NS(=O)(=O)c1ccc2c(c1)CCC(=O)N2 (centres undefined)
3. Cc1cc(C)cc(NC(=O)CCNS(=O)(=O)c2ccc3c(c2)oc(=O)n3C)c1
4. CC1CCCN(C(=O)c2ccc(CNc3c(N4CCCCC4)c(=O)c3=O)cc2)C1 (centres undefined)

2.25
-0.93
17.7
4.47

// batch mode: one inhibition value per listed entry
1. CC(C)[C@@H]1N[C@]2(C(=O)Nc3ccccc32)[C@@H]2C(=O)N(c3cccc(C(F)(F)F)c3)C(=O)[C@@H]21
2. Cc1cc(=O)oc2cc(OCC(=O)OCC(=O)Nc3ccc4ccccc4c3)ccc12
3. CCN1CCN(C(=O)Cn2cnc3sc(C)c(S(=O)(=O)N4CCN(c5ncccn5)CC4)c3c2=O)CC1
4. CN1/C(=C\C=Nc2ccccc2)C(C)(C)c2ccccc21
5. CC(C)(C)c1cc(CCC(=O)N2CCNCC2)c(C(C)(C)C)cc1O

[7.45, -10.1, 6.94, 13.4, -5.87]

// batch mode: one inhibition value per listed entry
1. O=C1C(=Cc2ccco2)CCC1=Cc1ccco1
2. Cc1cccc(NC(=O)C2CC(=O)NC(Nc3nc4ccccc4s3)=N2)c1 (centres undefined)

[-4.11, 11.6]

// batch mode: one inhibition value per listed entry
1. Cc1cccc(OCc2nnc(NC(=O)Cc3cccs3)s2)c1
2. Cc1cccc(C)c1-n1c(C)cc(/C=N\Nc2ccc([N+](=O)[O-])cn2)c1C
3. O=C(CN1CCN(C(=O)c2ccccc2)CC1)Nc1cc(S(=O)(=O)N2CCCC2)ccc1Cl
4. O=C(N/N=C/c1ccc(Cl)cc1Cl)C1CCN(c2ncc(C(F)(F)F)cc2Cl)CC1

-15.6
10.6
-24.1
0.03

Bench note: what inhibition did NC(=N\N=Cc1ccco1)/C(N)=N/N=Cc1ccco1 show?
27.4
